Where do the numbers come from? From PubChem BioAssay AID1963832.

Tested on: 885724-159-R-J1-PDC complex spheroid viability
Protocol: Anticancer human tumor 885724-159-R-J1-PDC patient-derived pancreatic adenocarcinoma cell line growth inhibition [POLQ]
Assay setup: second compound 0.0316 µM; first compound 1 µM; active compounds read low
Measured attribute: viability, T/C (%)
Field format: number, assumed %, no unit text.

- Molecule: "CCc1cc2c(N3CCc4c(cc(Cn5ccnc5)cc4-c4cn(C)nc4C(F)(F)F)C3=O)ccnc2c(OC)n1 + COC1C(OC(N)=O)C(O)C(Oc2ccc3c(O)c(NC(=O)c4ccc(O)c(CC=C(C)C)c4)c(=O)oc3c2C)OC1(C)C"
  viability, T/C, %: 75
- Molecule: "O=C(c1cc(Cc2n[nH]c(=O)c3ccccc23)ccc1F)N1CCN(C(=O)C2CC2)CC1 + COC1C(OC(N)=O)C(O)C(Oc2ccc3c(O)c(NC(=O)c4ccc(O)c(CC=C(C)C)c4)c(=O)oc3c2C)OC1(C)C"
  viability, T/C, %: 88.3

From here, focus on the item given below.
Input: GET /values?readout=viability, T/C&item= O=c1[nH]cc(F)c(=O)[nH]1 + Nc1ccc(C#CCN(C(=O)Cc2ncc(C(F)(F)F)cc2C(F)(F)F)c2ccc(F)cc2)nn1
Output: 101

====

System: 885724-159-R-J1-PDC complex spheroid viability
Protocol: Anticancer human tumor 885724-159-R-J1-PDC cell line growth inhibition [POLQ];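 further: spheroids exposed to compounds for 7 days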
Assay setup: second compound 0.316 µM; first compound 0.0316 µM; active compounds read low
Measured attribute: viability, T/C (%)
Field format: number, assumed %, no unit text.

- Compound: "COc1cc2cc(C(=O)CCC(=O)O)sc2cc1OC + Nc1ccc(C#CCN(C(=O)Cc2ncc(C(F)(F)F)cc2C(F)(F)F)c2ccc(F)cc2)nn1"
  Result unit: "%"
  viability, T/C: 101
- Compound: "C=CC(=O)N1CCN(c2nc(=O)n(-c3c(C)ccnc3C(C)C)c3nc(-c4c(O)cccc4F)c(F)cc23)C(C)C1 (stereo not given) + COC1C(OC(N)=O)C(O)C(Oc2ccc3c(O)c(NC(=O)c4ccc(O)c(CC=C(C)C)c4)c(=O)oc3c2C)OC1(C)C"
  Result unit: "%"
  viability, T/C: 107
- Compound: "CCCS(=O)(=O)Nc1ccc(F)c(C(=O)c2c[nH]c3ncc(-c4ccc(Cl)cc4)cc23)c1F + Nc1ccc(C#CCN(C(=O)Cc2ncc(C(F)(F)F)cc2C(F)(F)F)c2ccc(F)cc2)nn1"
  Result unit: "%"
  viability, T/C: 99.4

Input: GET /values?readout=viability, T/C&item= C=CCn1c(=O)c2cnc(Nc3ccc(N4CCN(C)CC4)cc3)nc2n1-c1cccc(C(C)(C)O)n1 + Cc1cccc(N(C)C(=O)C2C(O)CCN2c2nc(C)cc(C(F)(F)F)c2C#N)c1
Output: 93.7

Input: GET /values?readout=viability, T/C&item= C=CCn1c(=O)c2cnc(Nc3ccc(N4CCN(C)CC4)cc3)nc2n1-c1cccc(C(C)(C)O)n1 + Nc1ccc(C#CCN(C(=O)Cc2ncc(C(F)(F)F)cc2C(F)(F)F)c2ccc(F)cc2)nn1
Output: 89.8

====

Test system: 885724-159-R-J1-PDC complex spheroid viability
Protocol: Anticancer human tumor 885724-159-R-J1-PDC cell line growth inhibition [POLQ];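 further: spheroids exposed to compounds for 7 days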
Assay setup: second compound 0.1 µM; first compound 0.316 µM; active compounds read low
Reported viability, T/C values for the following compounds.

Some compounds with known viability, T/C results, for comparison:
- Compound: "C=CCn1c(=O)c2cnc(Nc3ccc(N4CCN(C)CC4)cc3)nc2n1-c1cccc(C(C)(C)O)n1 + COC1C(OC(N)=O)C(O)C(Oc2ccc3c(O)c(NC(=O)c4ccc(O)c(CC=C(C)C)c4)c(=O)oc3c2C)OC1(C)C"
  viability, T/C: "54.4%"
- Compound: "CCc1cc2c(N3CCc4c(cc(Cn5ccnc5)cc4-c4cn(C)nc4C(F)(F)F)C3=O)ccnc2c(OC)n1 + Nc1ccc(C#CCN(C(=O)Cc2ncc(C(F)(F)F)cc2C(F)(F)F)c2ccc(F)cc2)nn1"
  viability, T/C: "79.6%"

Input: GET /values?readout=viability, T/C&item= CCc1cc2c(N3CCc4c(cc(Cn5ccnc5)cc4-c4cn(C)nc4C(F)(F)F)C3=O)cc(C)nc2c(OC)n1 + Nc1ccc(C#CCN(C(=O)Cc2ncc(C(F)(F)F)cc2C(F)(F)F)c2ccc(F)cc2)nn1
Output: 75.8%

Input: GET /values?readout=viability, T/C&item= CCc1cc2c(N3CCc4c(cc(Cn5ccnc5)cc4-c4cn(C)nc4C(F)(F)F)C3=O)ccnc2c(OC)n1 + COC1C(OC(N)=O)C(O)C(Oc2ccc3c(O)c(NC(=O)c4ccc(O)c(CC=C(C)C)c4)c(=O)oc3c2C)OC1(C)C
Output: 80.1%

Input: GET /values?readout=viability, T/C&item= CC1COCCN1c1cc(-c2ccnn2C)c2ccnc(-c3ccn[nH]3)c2n1 (stereo unspecified) + COC1C(OC(N)=O)C(O)C(Oc2ccc3c(O)c(NC(=O)c4ccc(O)c(CC=C(C)C)c4)c(=O)oc3c2C)OC1(C)C
Output: 41.6%

Input: GET /values?readout=viability, T/C&item= CC(C)n1c(=O)n(C)c2cnc3cc(F)c(-c4ccc(OCCCN5CCCCC5)nc4)cc3c21 + COC1C(OC(N)=O)C(O)C(Oc2ccc3c(O)c(NC(=O)c4ccc(O)c(CC=C(C)C)c4)c(=O)oc3c2C)OC1(C)C
Output: 100%

Input: GET /values?readout=viability, T/C&item= O=C(Nc1ccc(O)c(NS(=O)(=O)c2ccc(F)cc2)c1)c1ccc(-c2ccccc2)cc1 + Cc1cccc(N(C)C(=O)C2C(O)CCN2c2nc(C)cc(C(F)(F)F)c2C#N)c1
Output: 94.2%

Input: GET /values?readout=viability, T/C&item= CC1COCCN1c1cc(C2(O)CC3CCC(C2)O3)c2cnn(-c3ccn[nH]3)c2n1 (stereo unspecified) + Cc1cccc(N(C)C(=O)C2C(O)CCN2c2nc(C)cc(C(F)(F)F)c2C#N)c1
Output: 47.6%

Input: GET /values?readout=viability, T/C&item= CNCc1ccc(-c2[nH]c3cc(F)cc4c3c2CCNC4=O)cc1 + Nc1ccc(C#CCN(C(=O)Cc2ncc(C(F)(F)F)cc2C(F)(F)F)c2ccc(F)cc2)nn1
Output: 92.5%

Input: GET /values?readout=viability, T/C&item= COc1cc(C2c3cc4c(cc3C(OC3OC5COC(C)OC5C(O)C3O)C3COC(=O)C23)OCO4)cc(OC)c1O (stereo unspecified) + Nc1ccc(C#CCN(C(=O)Cc2ncc(C(F)(F)F)cc2C(F)(F)F)c2ccc(F)cc2)nn1
Output: 82.2%

Input: GET /values?readout=viability, T/C&item= CC1COCCN1c1cc(C2(S(C)(=N)=O)CC2)nc(-c2ccnc3[nH]ccc23)n1 (stereo unspecified) + COC1C(OC(N)=O)C(O)C(Oc2ccc3c(O)c(NC(=O)c4ccc(O)c(CC=C(C)C)c4)c(=O)oc3c2C)OC1(C)C
Output: 95.4%

Input: GET /values?readout=viability, T/C&item= Nc1ccn(C2OC(CO)C(O)C2(F)F)c(=O)n1 (stereo unspecified) + Cc1cccc(N(C)C(=O)C2C(O)CCN2c2nc(C)cc(C(F)(F)F)c2C#N)c1
Output: 57.5%

Input: GET /values?readout=viability, T/C&item= CNCc1ccc(-c2[nH]c3cc(F)cc4c3c2CCNC4=O)cc1 + COC1C(OC(N)=O)C(O)C(Oc2ccc3c(O)c(NC(=O)c4ccc(O)c(CC=C(C)C)c4)c(=O)oc3c2C)OC1(C)C
Output: 93.5%

Input: GET /values?readout=viability, T/C&item= CC1COCCN1c1cc(-c2ccnn2C)c2ccnc(-c3ccn[nH]3)c2n1 (stereo unspecified) + Cc1cccc(N(C)C(=O)C2C(O)CCN2c2nc(C)cc(C(F)(F)F)c2C#N)c1
Output: 54.2%

Input: GET /values?readout=viability, T/C&item= COc1ccc([C@@H](O)c2cc(-c3ncnc4cc(N5CCOCC5)ccc34)c(F)cc2Cl)nn1 + COC1C(OC(N)=O)C(O)C(Oc2ccc3c(O)c(NC(=O)c4ccc(O)c(CC=C(C)C)c4)c(=O)oc3c2C)OC1(C)C
Output: 81.9%

Input: GET /values?readout=viability, T/C&item= CC1COCCN1c1cc(C2(O)CC3CCC(C2)O3)c2cnn(-c3ccn[nH]3)c2n1 (stereo unspecified) + Nc1ccc(C#CCN(C(=O)Cc2ncc(C(F)(F)F)cc2C(F)(F)F)c2ccc(F)cc2)nn1
Output: 46.2%

Input: GET /values?readout=viability, T/C&item= O=c1[nH]cc(F)c(=O)[nH]1 + Nc1ccc(C#CCN(C(=O)Cc2ncc(C(F)(F)F)cc2C(F)(F)F)c2ccc(F)cc2)nn1
Output: 92.1%

Input: GET /values?readout=viability, T/C&item= C=CC(=O)N1CCN(c2nc(=O)n(-c3c(C)ccnc3C(C)C)c3nc(-c4c(O)cccc4F)c(F)cc23)C(C)C1 (stereo unspecified) + Cc1cccc(N(C)C(=O)C2C(O)CCN2c2nc(C)cc(C(F)(F)F)c2C#N)c1
Output: 99.1%

Input: GET /values?readout=viability, T/C&item= C=CC(=O)N1CCN(c2nc(=O)n(-c3c(C)ccnc3C(C)C)c3nc(-c4c(O)cccc4F)c(F)cc23)C(C)C1 (stereo unspecified) + COC1C(OC(N)=O)C(O)C(Oc2ccc3c(O)c(NC(=O)c4ccc(O)c(CC=C(C)C)c4)c(=O)oc3c2C)OC1(C)C
Output: 106%

Input: GET /values?readout=viability, T/C&item= O=c1[nH]cc(F)c(=O)[nH]1 + COC1C(OC(N)=O)C(O)C(Oc2ccc3c(O)c(NC(=O)c4ccc(O)c(CC=C(C)C)c4)c(=O)oc3c2C)OC1(C)C
Output: 101%

Input: GET /values?readout=viability, T/C&item= COc1ccc([C@@H](O)c2cc(-c3ncnc4cc(N5CCOCC5)ccc34)c(F)cc2Cl)nn1 + Nc1ccc(C#CCN(C(=O)Cc2ncc(C(F)(F)F)cc2C(F)(F)F)c2ccc(F)cc2)nn1
Output: 84.4%
